B1: glmS ribozyme (parent)
chain: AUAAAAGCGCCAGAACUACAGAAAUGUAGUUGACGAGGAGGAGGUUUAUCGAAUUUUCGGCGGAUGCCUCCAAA

Variants of: B1
Assay: self-cleavage kobs at 160 uM GlcN6P; higher = faster cleavage; RNA array
Details: with glucosamine-6-phosphate
Variants at the floor of the assay were thinned out.
Recorded measurements of self-cleavage kobs at 160 uM GlcN6P, one per entry

C8U G32C
< 1e-05 s⁻¹
A39G C70U C71U
0.000403 s⁻¹
U45C A48U U69C
< 1e-05 s⁻¹
C8A A15G
< 1e-05 s⁻¹
G13C C34U G35U
< 1e-05 s⁻¹
C11A
2.39e-05 s⁻¹
G60A G66U
< 1e-05 s⁻¹
A6U U45G
< 1e-05 s⁻¹

Proceeding to the next variant to report its self-cleavage kobs at 160 uM GlcN6P.
Exam item: Using the record for A39G C71A , state its measured self-cleavage kobs at 160 uM GlcN6P.
Marked response: 0.000645 s⁻¹
